target.of.assay: NADPH oxidase 5 (Homo sapiens) (UniProt Q96PH1)
Sequence (Q96PH1 whole entry, looked up): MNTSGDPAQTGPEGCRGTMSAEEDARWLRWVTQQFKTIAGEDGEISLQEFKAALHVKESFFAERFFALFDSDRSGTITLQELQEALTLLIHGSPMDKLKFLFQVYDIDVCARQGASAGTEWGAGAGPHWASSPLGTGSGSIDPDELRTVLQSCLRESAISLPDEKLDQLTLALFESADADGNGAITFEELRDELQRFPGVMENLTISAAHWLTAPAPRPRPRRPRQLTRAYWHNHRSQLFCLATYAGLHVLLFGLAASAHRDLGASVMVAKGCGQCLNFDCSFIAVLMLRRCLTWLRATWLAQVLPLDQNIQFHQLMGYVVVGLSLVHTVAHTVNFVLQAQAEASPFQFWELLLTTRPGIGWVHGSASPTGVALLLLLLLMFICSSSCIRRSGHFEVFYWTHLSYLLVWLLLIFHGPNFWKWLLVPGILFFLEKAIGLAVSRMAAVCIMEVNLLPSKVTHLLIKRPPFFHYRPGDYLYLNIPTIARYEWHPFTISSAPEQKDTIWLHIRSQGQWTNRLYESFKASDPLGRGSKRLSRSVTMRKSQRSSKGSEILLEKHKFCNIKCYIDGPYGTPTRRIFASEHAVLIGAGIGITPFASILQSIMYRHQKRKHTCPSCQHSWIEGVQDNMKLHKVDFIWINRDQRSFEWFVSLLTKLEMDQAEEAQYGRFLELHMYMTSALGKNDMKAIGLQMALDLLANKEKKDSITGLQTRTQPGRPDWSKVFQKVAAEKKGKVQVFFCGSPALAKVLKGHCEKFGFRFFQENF
assay.remarks: compounds shifting NOX5 Amplex Red fluorescence – cell-based, HEK293-NOX5, NOX inhibitor project, primary screen (AID 1161)
condition.label: HEK293-NOX5, ionomycin, 45 min, higher = more signal
Classification field: yes = z-score at or over -0.9; no = z-score under -0.9.

Item `O=C1N(CCS(=O)(=O)c2ccccc2)c2ccccc2[C@H]2OC(c3ccc(OCCCO)cc3)=N[C@@]12CCS(=O)(=O)c1ccccc1` with z-score of -0.9 or above?
yes

Item `CN(C)CCCN1C(=O)[C@@]2(Cc3ccccc31)c1ccccc1C(=O)N(Cc1ccccc1)[C@H]2c1ccc(CO)cc1` with z-score of -0.9 or above?
no

Item `O=[N+]([O-])c1ccc(C[n+]2ccc(-c3ccc(CO)cc3)cc2)o1` with z-score of -0.9 or above?
no

Item `C=CCOC(=O)[C@@H]1[C@H]2C(=O)O[C@H](c3ccccc3)[C@H](c3ccccc3)N2[C@H](c2ccc(OCCOC(=O)[C@@H]3C[C@@H]4C(=O)N5CCC[C@H]5C(=O)N4[C@@H]3c3cccc(OCCO)c3)cc2)[C@@]12C(=O)Nc1ccc(I)cc12` with z-score of -0.9 or above?
yes

Item `COC(=O)[C@@]1(Cc2ccc(OC)cc2)[C@H]2c3cc(C(=O)N(C)C)n(Cc4cc(F)c(F)c(F)c4)c3C[C@H]2CN1C(=O)c1ccccc1` with z-score of -0.9 or above?
no

Item `O=C(NCc1ccccc1)[C@]1(Cc2ccccc2)N=C(c2ccc(OCCCO)cc2)O[C@@H]1c1ccccc1` with z-score of -0.9 or above?
yes

Item CCOc1cc(C(O)C2C=CC3C(=O)NC(=O)C3N2Nc2ccccn2)ccc1O (configuration not stated) with z-score of -0.9 or above?
no

Item `COCCCNC(=O)[C@@]1(Cc2ccccc2I)c2ccccc2C(=O)N(Cc2ccccc2Cl)[C@H]1c1ccc(CO)cc1` with z-score of -0.9 or above?
no

Item `COC(=O)[C@]1(Cc2ccccc2N=[N+]=[N-])N=C(c2ccc(OCCCO)cc2)O[C@@H]1c1ccccc1` with z-score of -0.9 or above?
no

Item `COc1ccccc1CN1C(=O)c2ccccc2[C@@H](C(=O)NCC(C)C)[C@@H]1c1ccc(CO)cc1` with z-score of -0.9 or above?
yes

Item O=C1CSC(c2cccc([N+](=O)[O-])c2)N1c1ccccc1 (configuration not stated) with z-score of -0.9 or above?
yes

Item `COCCOC(=O)N1C(=O)[C@@]2(c3cc(C#CCNC(N)=O)ccc31)[C@H](c1ccc(OCCO)cc1)N1[C@H](c3ccccc3)[C@H](c3ccccc3)OC(=O)[C@H]1[C@@H]2C(=O)N1CCN(c2ncccn2)CC1` with z-score of -0.9 or above?
yes

Item `O=C1O[C@@H](c2ccccc2)[C@@H](c2ccccc2)N2[C@@H](c3ccc(O)cc3)[C@]3(C(=O)Nc4ccc(C#CC5=CCCCC5)cc43)[C@@H](C(=O)Nc3nc4ccccc4s3)[C@H]12` with z-score of -0.9 or above?
yes

Item `COC(=O)[C@@]1(Cc2ccc(OC)cc2)[C@H]2c3cc(C(=O)N(C)C)n(CCF)c3C[C@H]2CN1C(=O)c1ccccc1` with z-score of -0.9 or above?
yes

Item `NC(=O)NCC#Cc1ccc2c(c1)[C@]1(C(=O)N2)[C@H](c2ccc(O)cc2)N2[C@H](c3ccccc3)[C@H](c3ccccc3)OC(=O)[C@H]2[C@@H]1C(N)=O` with z-score of -0.9 or above?
yes

Item `COC(=O)C(CC#Cc1ccc2c(c1)[C@]1(C(=O)N2)[C@H](c2ccc(OCCO)cc2)N2[C@H](c3ccccc3)[C@H](c3ccccc3)OC(=O)[C@H]2[C@@H]1C(=O)O)C(=O)OC` with z-score of -0.9 or above?
yes

Item CC1CC/C=C\[C@H]2OC34C=CCN(c5ccc(Cl)cc5)C(=O)[C@H]3N(C(CO)C(C)C)C(=O)[C@]4(C)C2C(=O)O1 (some centres not stated) with z-score of -0.9 or above?
yes

Item `CCCC=C(CCC)[C@@H](NS(=O)(=O)CC)c1ccccc1` with z-score of -0.9 or above?
yes

Item `COc1ccc([Si](C)(C)[C@@H]2[C@@H](CCO)O[C@]3(C(=O)N(Cc4ccc(N5C(=O)c6ccccc6Oc6ccccc65)cc4)c4ccccc43)[C@H]2C)cc1` with z-score of -0.9 or above?
yes

Item `COCCOC(=O)N1C(=O)[C@@]2(c3cc(C#CCNC(N)=O)ccc31)[C@H](C(=O)N1CCCCCCC1)[C@H]1C(=O)O[C@H](c3ccccc3)[C@H](c3ccccc3)N1[C@@H]2c1ccc(OCCO)cc1` with z-score of -0.9 or above?
yes

Item `COC(=O)[C@@]1(Cc2ccccc2)[C@H]2c3cc(C(=O)N(C)C)n(Cc4ccc(O)c(OC)c4)c3C[C@H]2CN1C(=O)c1ccccc1` with z-score of -0.9 or above?
no

Item O=C1C2C=CC(C(O)c3ccccn3)N(Nc3ccccc3)C2C(=O)N1c1ccccc1 (configuration not stated) with z-score of -0.9 or above?
no

Item `COCCOC(=O)N1C(=O)[C@@]2(c3ccccc31)[C@H](c1ccccc1OCCO)N1[C@H](c3ccccc3)[C@H](c3ccccc3)OC(=O)[C@H]1[C@@H]2C(=O)N1CCc2cc(OC)c(OC)cc2C1` with z-score of -0.9 or above?
yes

Item C=CC[C@]1(C(=O)NCC(O)CO)N=C(c2ccc(OCCCO)cc2)O[C@H]1c1ccccc1N=[N+]=[N-] (some centres not stated) with z-score of -0.9 or above?
yes

Item `CCCNC(=O)[C@@]1(Sc2ccc(C)cc2)CC(=O)N(Cc2ccccc2)[C@@H]1c1ccc(CO)cc1I` with z-score of -0.9 or above?
yes

Item `C[N+](C)(C)CCCC[C@@H]1NC(=O)[C@@H]2C[C@H](C(=O)O)[C@H](c3cccc(OCCO)c3)N2C1=O` with z-score of -0.9 or above?
yes

Item O=C1NC(=O)C2C1C=CC(C(O)c1ccc3c(c1)OCO3)N2Nc1ccc(Cl)cc1Cl (configuration not stated) with z-score of -0.9 or above?
no

* * *

target.of.assay: Carbonic anhydrase 2 (Homo sapiens) (UniProt P00918)
assay.remarks: compounds binding carbonic anhydrase 2 – biochemical, small-molecule microarray, Alexa647-labelled CAII, profiling panel (AID 1122)
condition.label: CAII-A647 binding fluorescence, higher = more signal
Classification field: Condition met = composite z-score at or over 0.7; Condition not met = composite z-score under 0.7.

Item CCN(CC)c1ccc(N2CC=CC34O[C@@H]5/C=C\CCCOC(=O)C5[C@H]3C(=O)N(CCCCCCO)[C@@H]4C2=O)cc1 (some centres not stated) with composite z-score of 0.7 or above?
Condition met

Item `COC(=O)[C@@]1(Cc2ccccc2)[C@H]2c3cc(C(=O)N4CCCC4)n(Cc4ccccc4)c3C[C@H]2CN1C(=O)c1ccccc1` with composite z-score of 0.7 or above?
Condition not met

Item `COCCCNC(=O)[C@@]1(Cc2ccccc2CN=[N+]=[N-])N=C(c2ccc(OCCCO)cc2)O[C@H]1c1ccccc1N=[N+]=[N-]` with composite z-score of 0.7 or above?
Condition not met

Item `C[N+](C)(C)CCCC[C@@H]1NC(=O)[C@@H]2C[C@H](C(=O)O)[C@H](c3cccc(OCCO)c3)N2C1=O` with composite z-score of 0.7 or above?
Condition not met

Item CC(C)c1ccc(NN2C(C(O)c3ccccn3)C=CC3C(=O)N(c4ccccc4)C(=O)C32)cc1 (configuration not stated) with composite z-score of 0.7 or above?
Condition met

Item `COc1ccc([Si](C)(C)[C@H]2[C@H](CCO)O[C@@]3(C(=O)N(Cc4cccc(N5CCOC5=O)c4)c4ccccc43)[C@@H]2C)cc1` with composite z-score of 0.7 or above?
Condition not met

Item `O=C1c2ccccc2[C@](Cc2ccccc2I)(C(=O)NCC(F)(F)F)[C@H](c2ccc(CO)cc2)N1Cc1ccccc1` with composite z-score of 0.7 or above?
Condition not met

Item `C=CCOC(=O)[C@@H]1[C@H]2C(=O)O[C@H](c3ccccc3)[C@H](c3ccccc3)N2[C@H](c2ccc(OCCOC(=O)[C@@H]3C[C@@H]4C(=O)N[C@@H](CCCCNC(C)=O)C(=O)N4[C@@H]3c3ccc(O)cc3)cc2)[C@@]12C(=O)Nc1ccc(I)cc12` with composite z-score of 0.7 or above?
Condition not met

Item `O=C(CS)NCCCCCNC(=O)[C@@H]1C[C@@H]2C(=O)N3CCC[C@H]3C(=O)N2[C@@H]1c1ccc(O)cc1` with composite z-score of 0.7 or above?
Condition not met

Item `COCCCNC(=O)[C@]1(Cc2ccccc2CN=[N+]=[N-])N=C(c2ccc(OCCCO)cc2)O[C@@H]1c1ccccc1CN=[N+]=[N-]` with composite z-score of 0.7 or above?
Condition not met

Item `NC(=O)NCC#Cc1ccc2c(c1)[C@]1(C(=O)N2)[C@H](c2ccc(OCCO)cc2)N2[C@H](c3ccccc3)[C@H](c3ccccc3)OC(=O)[C@H]2[C@@H]1C(=O)N1CCCCCCC1` with composite z-score of 0.7 or above?
Condition met

Item `CC(=O)NCCCC[C@@H]1NC(=O)[C@@H]2C[C@H](C(=O)NCCCC[N+](C)(C)C)[C@H](c3cccc(OCCO)c3)N2C1=O` with composite z-score of 0.7 or above?
Condition met

Item `CC(C)(C)OC(=O)CC[C@@]1(C(=O)N2CCCCC2)N=C(c2ccc(OCCCO)cc2)O[C@@H]1c1ccccc1CN=[N+]=[N-]` with composite z-score of 0.7 or above?
Condition not met

Item `C[N+](C)(C)CCCC[C@@H]1NC(=O)[C@H]2C[C@@H](C(=O)NCCCCCCN)[C@@H](c3cccc(OCCO)c3)N2C1=O` with composite z-score of 0.7 or above?
Condition met

Item `COC(=O)[C@@]1(Cc2ccc(OC)cc2)[C@H]2c3cc(C(=O)N4CCCC4)n(Cc4ccc(C)o4)c3C[C@H]2CN1C(=O)c1ccccc1` with composite z-score of 0.7 or above?
Condition not met

Item `COCC(=C=CC[C@@H](O)c1ccccc1OCCO)C[C@@H](O)c1ccccn1` with composite z-score of 0.7 or above?
Condition met

Item `COC(=O)[C@H]1N=C(c2ccc(OCCCO)cc2)O[C@H]1c1ccccc1CN=[N+]=[N-]` with composite z-score of 0.7 or above?
Condition not met

Item `C=CC[C@]1(C(=O)N2CCOCC2)N=C(c2ccc(OCCCO)cc2)O[C@H]1c1ccccc1CN=[N+]=[N-]` with composite z-score of 0.7 or above?
Condition not met

Item `[N-]=[N+]=NCc1ccccc1[C@H]1OC(c2ccc(OCCCO)cc2)=N[C@@]1(Cc1ccccc1N=[N+]=[N-])C(=O)NCCN1CCOCC1` with composite z-score of 0.7 or above?
Condition met

Item `COC(=O)[C@@]1(Cc2ccccc2)[C@H]2c3cc(C(=O)N4CCCC4)n(CCO)c3C[C@H]2CN1C(=O)c1ccccc1` with composite z-score of 0.7 or above?
Condition met

Item `COc1ccc([Si](C)(C)[C@@H]2[C@@H](CCO)O[C@]3(C(=O)N(Cc4ccc(N5C(=O)c6ccccc6Oc6ccccc65)cc4)c4ccccc43)[C@H]2C)cc1` with composite z-score of 0.7 or above?
Condition not met

Item `CCOC(=O)C[C@H]1[C@H](OC(=O)Cc2ccc3c(c2)OCO3)[C@@H](NC(=O)c2ccccc2)c2cc(OCCCO)ccc2N1C(=O)c1ccc2ccccc2n1` with composite z-score of 0.7 or above?
Condition not met

Item `COC(=O)[C@@]1(Cc2ccc(OC)cc2)[C@H]2c3cc(C(=O)N(C)C)n(Cc4cc(C)n(C)n4)c3C[C@H]2CN1C(=O)c1ccccc1` with composite z-score of 0.7 or above?
Condition met

Item `C=CCN1C(=O)[C@@]2(O[C@@H](CCn3cc([C@H](O)c4ccccc4)nn3)[C@H]([Si](C)(C)c3ccc(OC)cc3)[C@H]2C)c2cc(NC(=O)c3ccc(OC)cc3)ccc21` with composite z-score of 0.7 or above?
Condition not met

Item `COCCOC(=O)N1C(=O)[C@@]2(c3cc(C#CCNC(N)=O)ccc31)[C@H](C(=O)N1CCCCCCC1)[C@H]1C(=O)O[C@H](c3ccccc3)[C@H](c3ccccc3)N1[C@@H]2c1ccc(OCCO)cc1` with composite z-score of 0.7 or above?
Condition not met

Item `C[C@@]1([C@@H](NC(=O)c2cccs2)c2ccc(-c3ccccc3)cc2)C[C@H]1C1CCCCC1` with composite z-score of 0.7 or above?
Condition met
